target: FGF2 (Homo sapiens); assay: Competition with biotinylated recombinant TSP-1 domain (E123CaG1) for binding to FGF2 (DELFIA); conditions: mean ± SE of 3 experiments
Sequence (P09038 134-288 limits assumed): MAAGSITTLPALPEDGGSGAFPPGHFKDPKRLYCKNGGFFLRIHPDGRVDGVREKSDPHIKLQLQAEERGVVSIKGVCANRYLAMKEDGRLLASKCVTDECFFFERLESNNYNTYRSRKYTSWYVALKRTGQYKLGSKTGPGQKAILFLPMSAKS
PROPERTY LABEL: pIC50
Give bare numbers, as −log10 of the molar value.

Some solved cases for reference:
Problem: May I ask what pIC50 has been recorded for `Nc1cccc(/N=N/c2c(S(=O)(=O)O)cc3cc(NC(=O)Nc4ccc5c(O)c(/N=N/c6cccc(N)c6)c(S(=O)(=O)O)cc5c4)ccc3c2O)c1` ?
Solution: 6.21

Problem: `COc1ccccc1/N=N/c1c(S(=O)(=O)O)cc2cc(NC(=O)Nc3ccc4c(O)c(/N=N/c5ccc6cc(S(=O)(=O)O)ccc6c5N)c(S(=O)(=O)O)cc4c3)ccc2c1O` , same question.
Solution: 6.23

Further cases:
Problem: Which pIC50 is listed for `Cc1ccc(C)c(/N=N/c2c(S(=O)(=O)O)cc3cc(NC(=O)Nc4ccc5c(O)c(/N=N/c6ccc7cc(S(=O)(=O)O)ccc7c6)c(S(=O)(=O)O)cc5c4)ccc3c2O)c1` ?
Solution: 6.34
